All values here come from PubChem BioAssay (NCI).

// TGI lookup, one value per entry
# System: CAKI-1 renal
# method.notes: NCI tumour cell line growth inhibition, 48 h
quantity.name: TGI

compound: Cc1cc(=O)n2nnc3c4ccccc4ccc3n12
quantity.name: TGI
recorded.result: 3.33 µM
--
compound: COC(=O)C(=O)C(C(=O)C(=O)Nc1ccc(OC)cc1[N+](=O)[O-])c1nc2ccc([N+](=O)[O-])cc2[nH]c1=O (centres undefined)
quantity.name: TGI
recorded.result: > 100 µM
--
compound: COC(=O)/C=C\[C@H]1[C@H](C)N1S(=O)(=O)c1ccc(C)cc1 (some centres undefined)
quantity.name: TGI
recorded.result: > 100 µM
--
compound: O=[N+]([O-])c1ccc(C2CC(c3ccc(NCc4nc5ccccc5[nH]4)cc3)=NO2)cc1 (centres undefined)
quantity.name: TGI
recorded.result: > 100 µM
--
compound: CCOC(=O)N1CCN(P(=O)(Nc2ccc3nc(NC(=O)OC)[nH]c3c2)Oc2ccccc2)CC1 (centres undefined)
quantity.name: TGI
recorded.result: > 100 µM
--
compound: CCOC(=O)/C(C#N)=C\C=C(\Sc1nc2ccccc2s1)c1ccc(Cl)cc1
quantity.name: TGI
recorded.result: 41.4 µM
--
compound: COC(=O)/C=C1/SC(=Nc2ccc(F)cc2)N(CCc2c[nH]c3ccc(O)cc23)C1=O
quantity.name: TGI
recorded.result: > 100 µM
--
compound: O=C1C(C=NC(=S)c2ccccc2)=C(O)c2ccccc21
quantity.name: TGI
recorded.result: > 100 µM
--
compound: CN(C)CCONC(=O)C12CC3CC(CC(C3)C1)C2
quantity.name: TGI
recorded.result: > 100 µM
--
compound: N#CC(C#N)=C1NN=C(Cl)c2ccccc21
quantity.name: TGI
recorded.result: > 100 µM
--
compound: COC[C@@H]1[C@H]2OC(C)(C)O[C@H]2C(=O)N1C(=O)c1ccc(OC)cc1
quantity.name: TGI
recorded.result: > 100 µM
--
compound: Cc1cc(=O)[nH]c(S(=O)(=O)NC(=S)Nc2ccc(Cl)cc2)n1
quantity.name: TGI
recorded.result: > 100 µM
--
compound: O=S1OC[C@H](CCCl)O1 (some centres undefined)
quantity.name: TGI
recorded.result: > 100 µM
--
compound: CC(CCOc1ccc2ccc(=O)oc2c1)C1=CC(=O)C(C)(C)O1 (centres undefined)
quantity.name: TGI
recorded.result: 8.75 µM
--
compound: O=S(=O)(c1ccccc1)n1c(C(O)c2ccccc2)cc2ccccc21 (centres undefined)
quantity.name: TGI
recorded.result: 47.3 µM
--
compound: C[C@@H](O)CCC(=O)c1ccoc1
quantity.name: TGI
recorded.result: > 100 µM
--
compound: CC1CC2(OC2C)C(=O)OC2CCN(C)C/C=C(/COC(=O)C1(C)O)C2=O (centres undefined)
quantity.name: TGI
recorded.result: > 100 µM
--
compound: c1ccc(CC(Cc2ccccc2)C2=NCCCN2)cc1
quantity.name: TGI
recorded.result: > 100 µM
--
compound: Cc1cccc2nc3cccc(C(=O)NCCC[N+](C)(CCCNC(=O)c4cccc5nc6cccc(C)c6nc45)Cc4ccc([N+](=O)[O-])n4C)c3nc12
quantity.name: TGI
recorded.result: > 100 µM
--
compound: Cc1ccc(S(=O)(=O)C(CC(NC=O)S(=O)(=O)c2ccc(C)cc2)NC=O)cc1 (centres undefined)
quantity.name: TGI
recorded.result: > 100 µM
--
compound: CC1=C(C(=O)CC(=O)C(=O)Nc2ccc(Cl)cc2C)Sc2ccccc2N1
quantity.name: TGI
recorded.result: > 100 µM
--
compound: CCC12C=CCN3CCC4(c5cc(C6(C(=O)OC)CCCCCc7c6[nH]c6ccccc76)c(OC)cc5N(C)C4C(O)(C(=O)OC)C1OC(C)=O)C32 (centres undefined)
quantity.name: TGI
recorded.result: 7.46 µM
--
compound: CCC1=CCN(c2ccc(C)cc2)OC1c1ccc(OC)cc1 (centres undefined)
quantity.name: TGI
recorded.result: > 100 µM
--
compound: Nc1c(C(=O)c2cccc(OC[C@@H](O)CO)c2)cnn1-c1ccc(F)cc1
quantity.name: TGI
recorded.result: > 25 µM
--
compound: C=C1CC2(CCOc3ccc(Cl)cc32)OC1=O (centres undefined)
quantity.name: TGI
recorded.result: 15.4 µM
--
compound: CCC(N)(C(=O)O)C(C)C (centres undefined)
quantity.name: TGI
recorded.result: > 100 µM
--
compound: C[C@]12CCC(N3CCCC3)CC1=CC[C@@H]1[C@@H]2CC[C@]2(C)C(O)[C@H](n3ccnc3)C[C@@H]12 (some centres undefined)
quantity.name: TGI
recorded.result: > 100 µM
--
compound: Cc1[nH]n(-c2ncc(C(=O)O)c(=O)[nH]2)c(=O)c1CCO
quantity.name: TGI
recorded.result: > 100 µM
--
compound: COc1ccc(C(=S)N(C)NC(=O)CC(=O)NN(C)C(=S)c2ccc(OC)cc2)cc1
quantity.name: TGI
recorded.result: > 100 µM
